target: sGC (Homo sapiens, UniProt Q02108+Q02153); assay: Cell-based sGC Functional Assay (CASA Assay), cGMP generation in CHO-K1/sGC cells; details: without ODQ incubation, read-out: inflection points (IP)
Sequence (Q02108 whole entry): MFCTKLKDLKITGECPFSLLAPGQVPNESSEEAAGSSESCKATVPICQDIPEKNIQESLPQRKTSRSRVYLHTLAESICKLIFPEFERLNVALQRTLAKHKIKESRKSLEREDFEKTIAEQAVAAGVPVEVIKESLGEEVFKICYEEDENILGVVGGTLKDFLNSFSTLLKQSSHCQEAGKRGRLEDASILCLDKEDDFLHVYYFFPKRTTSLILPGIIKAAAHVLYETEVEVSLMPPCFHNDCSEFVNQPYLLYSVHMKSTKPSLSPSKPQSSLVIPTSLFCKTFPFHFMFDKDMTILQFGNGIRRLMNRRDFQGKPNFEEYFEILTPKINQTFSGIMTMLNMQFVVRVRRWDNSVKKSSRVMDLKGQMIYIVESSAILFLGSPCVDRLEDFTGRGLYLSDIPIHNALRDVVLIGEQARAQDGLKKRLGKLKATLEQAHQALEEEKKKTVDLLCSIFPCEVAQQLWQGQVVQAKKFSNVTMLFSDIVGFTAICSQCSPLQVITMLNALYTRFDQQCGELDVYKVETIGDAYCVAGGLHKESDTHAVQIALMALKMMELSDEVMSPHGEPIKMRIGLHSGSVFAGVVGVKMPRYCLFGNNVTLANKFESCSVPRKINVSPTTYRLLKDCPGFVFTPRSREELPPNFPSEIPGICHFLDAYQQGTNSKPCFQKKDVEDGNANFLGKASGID
Sequence (Q02153 whole entry): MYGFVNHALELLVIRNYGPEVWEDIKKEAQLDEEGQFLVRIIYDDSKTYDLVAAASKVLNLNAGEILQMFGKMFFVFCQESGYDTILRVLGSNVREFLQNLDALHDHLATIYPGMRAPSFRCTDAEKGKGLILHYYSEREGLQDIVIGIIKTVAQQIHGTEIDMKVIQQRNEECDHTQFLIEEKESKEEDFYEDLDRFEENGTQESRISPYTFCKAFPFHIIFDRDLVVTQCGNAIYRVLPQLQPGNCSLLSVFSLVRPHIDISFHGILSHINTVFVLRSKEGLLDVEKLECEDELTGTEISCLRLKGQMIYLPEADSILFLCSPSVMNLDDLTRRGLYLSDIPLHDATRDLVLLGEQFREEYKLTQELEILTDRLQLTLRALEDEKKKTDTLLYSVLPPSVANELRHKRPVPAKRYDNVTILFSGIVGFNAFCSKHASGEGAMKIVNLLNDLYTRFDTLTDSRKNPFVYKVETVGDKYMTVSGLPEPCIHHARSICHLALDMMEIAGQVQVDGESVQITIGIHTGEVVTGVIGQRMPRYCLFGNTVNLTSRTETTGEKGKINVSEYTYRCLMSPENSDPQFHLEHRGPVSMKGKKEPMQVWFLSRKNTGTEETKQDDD
Property Measured: pEC50
pEC50 (log units): -log10 of the concentration in mol/L.

Record CC1(c2ccc(F)cc2)C(=O)Nc2nc(-c3nc(CCC(F)(F)C(F)(F)F)n4cc(Cl)ccc34)nc(N)c21 (stereo not drawn) [Example 105] has sGC (Homo sapiens, UniProt Q02108+Q02153) pEC50 equal to 6.59

Record CC1(c2ccccc2)C(=O)Nc2nc(-c3nc(CCC(F)(F)C(F)(F)F)n4cc(Cl)ccc34)nc(N)c21 (stereo not drawn) [Example 136] / sGC (Homo sapiens, UniProt Q02108+Q02153), pEC50 recorded as 6.86

Considering CC1(c2ccccc2)C(=O)Nc2nc(-n3nc(CCC(F)(F)C(F)(F)F)c4cc(Cl)ccc43)nc(N)c21 (stereo not drawn) [Example 2] , its pEC50 with sGC (Homo sapiens, UniProt Q02108+Q02153) was recorded as 6.94
